Test Details: E. coli acrAB mutant growth effects, primary screen, E. coli filamentation inducers, strain DRC39, OD650, 48 h (AID 1179);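 also: screen aims at cell division blockers that make cells filament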
Condition Set: E. coli DRC39 delta-acrAB growth, higher = more signal, called active from +8 up or from −8 down
Items are presented alongside their recorded z-score.
Output spec: single numeric token, no unit.

Memo: CC(C)(C)OC(=O)CC[C@@]1(C(=O)O)N=C(c2ccc(OCCCO)cc2)O[C@@H]1c1ccccc1N=[N+]=[N-] , reported z-score: 0.367

Memo: COc1ccc([Si](C)(C)[C@H]2[C@H](CC(=O)N(CCO)Cc3ccccc3)O[C@@]3(C(=O)N(Cc4cccc(N5CCC5=O)c4)c4ccccc43)[C@@H]2C)cc1 , reported z-score: 0.169

Memo: CCOC(=O)C[C@H]1[C@H](OC(=O)Cc2ccc3c(c2)OCO3)[C@@H](NC(=O)c2ccc(-c3ccccc3)cc2)c2cc(OCCCO)ccc2N1C(=O)c1ccccc1 , reported z-score: 1.16

Memo: COCCOC(=O)N1C(=O)[C@@]2(c3cc(C#CCC(C(=O)OC)C(=O)OC)ccc31)[C@H](c1ccccc1OCCO)N1[C@H](c3ccccc3)[C@H](c3ccccc3)OC(=O)[C@H]1[C@@H]2C(N)=O , reported z-score: 0.857

Memo: COCCOC(=O)N1C(=O)[C@@]2(c3cc(C#CCNC(N)=O)ccc31)[C@H](c1ccc(O)cc1)N1[C@H](c3ccccc3)[C@H](c3ccccc3)OC(=O)[C@H]1[C@@H]2C(=O)NC[C@H](O)c1ccccc1 , reported z-score: 0.193

Memo: O=C(CS)NCCCCCCNC(=O)[C@@H]1C[C@@H]2C(=O)N3CCC[C@H]3C(=O)N2[C@@H]1c1ccc(O)cc1 , reported z-score: -0.313

These entries and their values trace back to PubChem BioAssay.
